All figures here come from patent US10414769B2.

- subject_of_test: NEK2 (Homo sapiens, UniProt P51955)
- Construct: purchased Life Technologies PV 3360
- Sequence (P51955 whole entry): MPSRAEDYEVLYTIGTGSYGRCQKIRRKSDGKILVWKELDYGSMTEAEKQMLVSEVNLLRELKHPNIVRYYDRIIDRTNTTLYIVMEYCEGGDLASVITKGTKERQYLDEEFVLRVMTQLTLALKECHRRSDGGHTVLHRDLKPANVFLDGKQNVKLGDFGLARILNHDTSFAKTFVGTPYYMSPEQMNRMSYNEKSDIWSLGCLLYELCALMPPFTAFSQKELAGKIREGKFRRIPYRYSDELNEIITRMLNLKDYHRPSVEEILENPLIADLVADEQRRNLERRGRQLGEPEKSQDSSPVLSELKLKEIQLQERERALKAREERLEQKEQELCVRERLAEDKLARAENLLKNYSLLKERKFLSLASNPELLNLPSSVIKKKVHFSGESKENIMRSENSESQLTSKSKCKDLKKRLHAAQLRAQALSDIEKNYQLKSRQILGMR
- method_summary: Z'-LYTE kinase selectivity assay NEK2
- Format: biochemical
parameter_measured: inhibition at 1 µM (%)

C[C@@H]1Cc2nn(C)c(-c3ccccc3)c2-c2nc(Nc3ccn(CCN4CCN(CC(C)(C)O)CC4)n3)ncc21 | 29
C[C@@H]1Cc2nn(C)c(-c3ccccc3)c2-c2nc(Nc3ccn(CCN4CCN(CC5CCCO5)CC4)n3)ncc21 (some centres unmarked) | 32
CC(O)CN1CCN(CCn2ccc(Nc3ncc4c(n3)-c3c(nn(C)c3-c3ccccc3)C[C@H]4C)n2)CC1 (some centres unmarked) | 32
C[C@@H]1Cc2nn(C)c(-c3ccccc3)c2-c2nc(Nc3ccn(CCN4CCN(CC(=O)OC5CCOCC5)CC4)n3)ncc21 | 22
C[C@@H]1Cc2nn(C)c(-c3ccccc3)c2-c2nc(Nc3ccn(CCN4CCOCC4)n3)ncc21 | 25
